Cited source for all entries: the supplement of paper PMC10307832

Entries and their measured relative viability follow.
Tested on: NCI-H2126
Assay: relative viability (nuclei count vs DMSO), 5 days (fraction); higher = more cells survive
Conditions: first compound 4 µM
Please reply with the value in numeric form only.

Solved entries:
Cc1sc2c(c1C)C(c1ccc(Cl)cc1)=N[C@@H](CC(=O)OC(C)(C)C)c1nnc(C)n1-2 [JQ1] + N=C(N)NC(=N)NCCc1ccccc1 [Phenformin] (partner 250 µM) : 0.411
Cc1sc2c(c1C)C(c1ccc(Cl)cc1)=N[C@@H](CC(=O)OC(C)(C)C)c1nnc(C)n1-2 [JQ1] + CS(=O)(=O)N1CCN(Cc2cc3nc(-c4cccc5[nH]ncc45)nc(N4CCOCC4)c3s2)CC1 [Pictilisib] (partner 1 µM) : 0.349
Cc1sc2c(c1C)C(c1ccc(Cl)cc1)=N[C@@H](CC(=O)OC(C)(C)C)c1nnc(C)n1-2 [JQ1] + Cc1nc(NC(=O)N2CCC[C@H]2C(N)=O)sc1-c1ccnc(C(C)(C)C(F)(F)F)c1 [Alpelisib] (partner 2 µM) : 0.47
Cc1sc2c(c1C)C(c1ccc(Cl)cc1)=N[C@@H](CC(=O)OC(C)(C)C)c1nnc(C)n1-2 [JQ1] + Nc1ncn([C@H]2C[C@H](O)[C@@H](CO)O2)c(=O)n1 [Decitabine] (partner 2 µM) : 0.428

Field: next molecule
# assay system NCI-H2126: give relative viability of Cc1sc2c(c1C)C(c1ccc(Cl)cc1)=N[C@@H](CC(=O)OC(C)(C)C)c1nnc(C)n1-2 [JQ1] + O=C(c1cc(Cc2n[nH]c(=O)c3ccccc23)ccc1F)N1CCN(C(=O)C2CC2)CC1 [Olaparib] (partner 8 µM)
0.735

---

Test system: HOP-62
Assay: relative viability (nuclei count vs DMSO), 5 days (fraction); higher = more cells survive
Details: first compound 8 µM
readout.type: relative viability

Worked cases, answers included:
O=c1[nH]c2ccccc2n1C1CCN(CCCC(c2ccc(F)cc2)c2ccc(F)cc2)CC1 [Pimozide] + COc1cc2c(Oc3ccc(NC(=O)C4(C(=O)Nc5ccc(F)cc5)CC4)cc3F)ccnc2cc1OCCCN1CCOCC1 [Foretinib] (partner 0.25 µM) : 1.03
O=c1[nH]c2ccccc2n1C1CCN(CCCC(c2ccc(F)cc2)c2ccc(F)cc2)CC1 [Pimozide] + NC(=O)Nc1cc(-c2cccc(F)c2)sc1C(=O)N[C@H]1CCCNC1 [AZD7762] (partner 0.2 µM) : 0.517
O=c1[nH]c2ccccc2n1C1CCN(CCCC(c2ccc(F)cc2)c2ccc(F)cc2)CC1 [Pimozide] + O=C(CCCCCCC(=O)Nc1ccccc1)NO [Vorinostat] (partner 1 µM) : 0.416
O=c1[nH]c2ccccc2n1C1CCN(CCCC(c2ccc(F)cc2)c2ccc(F)cc2)CC1 [Pimozide] + COc1cccc2cc(-c3nc([C@H]4CC[C@H](C(=O)O)CC4)n4ncnc(N)c34)[nH]c12 [OSI-027] (partner 0.5 µM) : 0.773

Now look at this entry.
Give a short answer stating reported relative viability for O=c1[nH]c2ccccc2n1C1CCN(CCCC(c2ccc(F)cc2)c2ccc(F)cc2)CC1 [Pimozide] + CS(=O)(=O)N1CCN(Cc2cc3nc(-c4cccc5[nH]ncc45)nc(N4CCOCC4)c3s2)CC1 [Pictilisib] (partner 1 µM) .
0.635

---

Test system: H3255
Assay: relative viability (nuclei count vs DMSO), 5 days (fraction); higher = more cells survive
Details: first compound 0.05 µM
readout.type: relative viability
// print number alone

COc1cc2nccc(Oc3ccc(NC(=O)Nc4cc(C)on4)c(Cl)c3)c2cc1OC [Tivozanib] + N=C(N)NC(=N)NCCc1ccccc1 [Phenformin] (partner 250 µM) : 0.354
COc1cc2nccc(Oc3ccc(NC(=O)Nc4cc(C)on4)c(Cl)c3)c2cc1OC [Tivozanib] + C[C@@H](Oc1cc(-c2cnn(C3CCNCC3)c2)cnc1N)c1c(Cl)ccc(F)c1Cl [Crizotinib] (partner 1 µM) : 0.911
Nc1ccn([C@@H]2O[C@H](CO)[C@@H](O)[C@@H]2O)c(=O)n1 [Cytarabine] + COc1cccc2cc(-c3nc([C@H]4CC[C@H](C(=O)O)CC4)n4ncnc(N)c34)[nH]c12 [OSI-027] (partner 0.5 µM) : 0.53

Look up relative viability of Nc1ccn([C@@H]2O[C@H](CO)[C@@H](O)[C@@H]2O)c(=O)n1 [Cytarabine] + Nc1ncn([C@H]2C[C@H](O)[C@@H](CO)O2)c(=O)n1 [Decitabine] (partner 2 µM) and report it.
0.637

Using known records, supply relative viability for Nc1ccn([C@@H]2O[C@H](CO)[C@@H](O)[C@@H]2O)c(=O)n1 [Cytarabine] + Cc1cc(Nc2cc(N3CCN(C)CC3)nc(Sc3ccc(NC(=O)C4CC4)cc3)n2)n[nH]1 [Tozasertib] (partner 0.1 µM)
0.786

---

Test system: LXF-289
Assay: relative viability (nuclei count vs DMSO), 5 days (fraction); higher = more cells survive
Conditions: first compound 0.02 µM
# relative viability values compiled below
Number only, no unit.

CC(=O)O[C@@]12CO[C@@H]1C[C@H](O)[C@@]1(C)C(=O)[C@H](O)C3=C(C)[C@@H](OC(=O)[C@H](O)[C@@H](NC(=O)OC(C)(C)C)c4ccccc4)C[C@@](O)([C@@H](OC(=O)c4ccccc4)[C@H]21)C3(C)C [Docetaxel] + O=C(CCCCCCC(=O)Nc1ccccc1)NO [Vorinostat] (partner 1 µM) : 0.118

Please report the measured relative viability for CC(=O)O[C@@]12CO[C@@H]1C[C@H](O)[C@@]1(C)C(=O)[C@H](O)C3=C(C)[C@@H](OC(=O)[C@H](O)[C@@H](NC(=O)OC(C)(C)C)c4ccccc4)C[C@@](O)([C@@H](OC(=O)c4ccccc4)[C@H]21)C3(C)C [Docetaxel] + CC(=O)Nc1cccc(-n2c(=O)n(C3CC3)c(=O)c3c(Nc4ccc(I)cc4F)n(C)c(=O)c(C)c32)c1 [Trametinib] (partner 0.02 µM)
0.109

Determine from records and report relative viability for CC(=O)O[C@@]12CO[C@@H]1C[C@H](O)[C@@]1(C)C(=O)[C@H](O)C3=C(C)[C@@H](OC(=O)[C@H](O)[C@@H](NC(=O)OC(C)(C)C)c4ccccc4)C[C@@](O)([C@@H](OC(=O)c4ccccc4)[C@H]21)C3(C)C [Docetaxel] + Cc1nc(NC(=O)N2CCC[C@H]2C(N)=O)sc1-c1ccnc(C(C)(C)C(F)(F)F)c1 [Alpelisib] (partner 2 µM)
0.0912

---

Test system: NCI-H647
Experiment: relative viability (nuclei count vs DMSO), 5 days (fraction); higher = more cells survive
Conditions: first compound 0.005 µM
readout.type: relative viability
Returns: the value as a bare number; no unit string appended.

As a guide, the following entries are already answered.
Nc1ccn([C@@H]2O[C@H](CO)[C@@H](O)[C@@H]2O)c(=O)n1 [Cytarabine] + CC(C)C[C@H](NC(=O)[C@H](Cc1ccccc1)NC(=O)c1cnccn1)B(O)O [Bortezomib] (partner 0.002 µM) : 0.695
Nc1ccn([C@@H]2O[C@H](CO)[C@@H](O)[C@@H]2O)c(=O)n1 [Cytarabine] + CCNC(=O)c1noc(-c2cc(C(C)C)c(O)cc2O)c1-c1ccc(CN2CCOCC2)cc1 [Luminespib] (partner 0.01 µM) : 0.146

Consider the compound COc1cc2nccc(Oc3ccc(NC(=O)Nc4cc(C)on4)c(Cl)c3)c2cc1OC [Tivozanib] + CC(=O)Nc1cccc(-n2c(=O)n(C3CC3)c(=O)c3c(Nc4ccc(I)cc4F)n(C)c(=O)c(C)c32)c1 [Trametinib] (partner 0.02 µM) . State its measured relative viability.
0.521

Quick one: give measured relative viability for Nc1ccn([C@@H]2O[C@H](CO)[C@@H](O)[C@@H]2O)c(=O)n1 [Cytarabine] + CS(=O)(=O)CCNCc1ccc(-c2ccc3ncnc(Nc4ccc(OCc5cccc(F)c5)c(Cl)c4)c3c2)o1 [Lapatinib] (partner 2 µM)
0.596

---

Test system: A-427
Test: relative viability (nuclei count vs DMSO), 5 days (fraction); higher = more cells survive
Settings: first compound 0.0002 µM
In this section we review reported relative viability values for a set of compounds.

Example results:
CC(=O)O[C@@]12CO[C@@H]1C[C@H](O)[C@@]1(C)C(=O)[C@H](O)C3=C(C)[C@@H](OC(=O)[C@H](O)[C@@H](NC(=O)OC(C)(C)C)c4ccccc4)C[C@@](O)([C@@H](OC(=O)c4ccccc4)[C@H]21)C3(C)C [Docetaxel] + CC(=O)Nc1cccc(-n2c(=O)n(C3CC3)c(=O)c3c(Nc4ccc(I)cc4F)n(C)c(=O)c(C)c32)c1 [Trametinib] (partner 0.02 µM) : 0.765
CC(=O)O[C@@]12CO[C@@H]1C[C@H](O)[C@@]1(C)C(=O)[C@H](O)C3=C(C)[C@@H](OC(=O)[C@H](O)[C@@H](NC(=O)OC(C)(C)C)c4ccccc4)C[C@@](O)([C@@H](OC(=O)c4ccccc4)[C@H]21)C3(C)C [Docetaxel] + Cc1nc(NC(=O)N2CCC[C@H]2C(N)=O)sc1-c1ccnc(C(C)(C)C(F)(F)F)c1 [Alpelisib] (partner 2 µM) : 1.02

Specify relative viability for CC(=O)O[C@@]12CO[C@@H]1C[C@H](O)[C@@]1(C)C(=O)[C@H](O)C3=C(C)[C@@H](OC(=O)[C@H](O)[C@@H](NC(=O)OC(C)(C)C)c4ccccc4)C[C@@](O)([C@@H](OC(=O)c4ccccc4)[C@H]21)C3(C)C [Docetaxel] + C[C@]1(O)C[C@@H](c2nc(-c3ccc4ccc(-c5ccccc5)nc4c3)c3c(N)nccn32)C1 [Linsitinib] (partner 1 µM) and stop.
1.09
